- targetDesc: EPHB1 (UniProt P54762)
- Sequence (P54762 whole entry, looked up): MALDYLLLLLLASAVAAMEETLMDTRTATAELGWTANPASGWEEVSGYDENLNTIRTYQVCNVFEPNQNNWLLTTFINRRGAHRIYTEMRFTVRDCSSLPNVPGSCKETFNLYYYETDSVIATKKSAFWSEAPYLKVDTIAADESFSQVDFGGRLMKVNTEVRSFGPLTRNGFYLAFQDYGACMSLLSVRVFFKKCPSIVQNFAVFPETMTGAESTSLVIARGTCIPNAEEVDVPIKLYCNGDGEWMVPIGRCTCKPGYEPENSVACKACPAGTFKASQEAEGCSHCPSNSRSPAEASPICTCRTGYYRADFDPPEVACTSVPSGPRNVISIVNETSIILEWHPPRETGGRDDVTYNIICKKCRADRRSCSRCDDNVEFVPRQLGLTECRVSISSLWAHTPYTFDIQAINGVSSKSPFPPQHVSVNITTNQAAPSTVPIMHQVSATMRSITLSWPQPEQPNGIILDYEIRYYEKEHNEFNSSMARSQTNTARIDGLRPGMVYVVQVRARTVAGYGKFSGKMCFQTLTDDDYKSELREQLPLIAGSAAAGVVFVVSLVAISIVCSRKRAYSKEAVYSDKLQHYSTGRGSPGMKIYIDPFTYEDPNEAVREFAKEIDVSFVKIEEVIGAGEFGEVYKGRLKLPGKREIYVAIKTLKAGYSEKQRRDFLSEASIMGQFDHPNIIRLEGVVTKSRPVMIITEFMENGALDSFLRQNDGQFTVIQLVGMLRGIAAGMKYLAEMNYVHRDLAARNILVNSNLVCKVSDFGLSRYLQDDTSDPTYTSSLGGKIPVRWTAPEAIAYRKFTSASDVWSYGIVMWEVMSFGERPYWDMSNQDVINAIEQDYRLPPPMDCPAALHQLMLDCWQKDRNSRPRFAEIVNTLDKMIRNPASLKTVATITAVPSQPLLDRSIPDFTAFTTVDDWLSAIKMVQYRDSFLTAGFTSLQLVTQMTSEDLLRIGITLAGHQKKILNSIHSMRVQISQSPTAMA
- testSummary: phosphorylation enrichment, bacterial display (enrichment ratio); higher = better substrate or ligand; peptides without Tyr show the background;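 note: 11-residue human phosphosite peptides and single-mutation variants displayed on the E. coli surface, counted by deep sequencing, each peptide's frequency after selection divided by its frequency in the unselected input library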;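 note: frequency after pTyr selection over input frequency; kinase dosed for 20-30% of maximal phosphorylation in three min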
Mark rule met for reported phosphorylation enrichment of 0.6 or greater; mark rule not met for anything smaller.

[[record]]
monomersequence = "TKYVAYIESQG [KDM4B_Y34_N29T]"
targetdesc = "EPHB1 (UniProt P54762)"
answerlabel = "rule not met"

[[record]]
monomersequence = "PLDGEYFTLHI [TP53_Y327_Q331H]"
targetdesc = "EPHB1 (UniProt P54762)"
answerlabel = "rule met"

[[record]]
monomersequence = "ENRLDYGSAWA [AR_Y395_P392R]"
targetdesc = "EPHB1 (UniProt P54762)"
answerlabel = "rule not met"

[[record]]
monomersequence = "NSRFTYKLEVK [USH2A_Y3747_YF]"
targetdesc = "EPHB1 (UniProt P54762)"
answerlabel = "rule met"

[[record]]
monomersequence = "RPSELYYSKIS [SMG1_Y2253_G2258S]"
targetdesc = "EPHB1 (UniProt P54762)"
answerlabel = "rule met"

[[record]]
monomersequence = "SNNFIYKTLGV [FAM83B_Y639_YF]"
targetdesc = "EPHB1 (UniProt P54762)"
answerlabel = "rule not met"

[[record]]
monomersequence = "STDDGYIDLQF [TMEM230_Y29]"
targetdesc = "EPHB1 (UniProt P54762)"
answerlabel = "rule met"

[[record]]
monomersequence = "KIDAKYKKKIK [WDR19_Y1230_E1235K]"
targetdesc = "EPHB1 (UniProt P54762)"
answerlabel = "rule not met"

[[record]]
monomersequence = "LKVDVYGRSHK [FUT3_Y222]"
targetdesc = "EPHB1 (UniProt P54762)"
answerlabel = "rule not met"

[[record]]
monomersequence = "LRNIDYFRLDG [ATRX_Y2083_YF]"
targetdesc = "EPHB1 (UniProt P54762)"
answerlabel = "rule met"

[[record]]
monomersequence = "KKMEVYQSIAD [MYBPC3_Y548_L545M]"
targetdesc = "EPHB1 (UniProt P54762)"
answerlabel = "rule met"

[[record]]
monomersequence = "KNKLNYTLPQD [NRAP_Y523]"
targetdesc = "EPHB1 (UniProt P54762)"
answerlabel = "rule not met"

[[record]]
monomersequence = "YDKEYYSVHNK [MET_Y1235]"
targetdesc = "EPHB1 (UniProt P54762)"
answerlabel = "rule not met"

[[record]]
monomersequence = "WLFFRYLAIGC [ATP2A2_Y836]"
targetdesc = "EPHB1 (UniProt P54762)"
answerlabel = "rule met"


* * *

Each entry below lists one item and its recorded phosphorylation enrichment value.
- targetDesc: Fyn (UniProt P06241)
- Sequence (P06241 whole entry, looked up): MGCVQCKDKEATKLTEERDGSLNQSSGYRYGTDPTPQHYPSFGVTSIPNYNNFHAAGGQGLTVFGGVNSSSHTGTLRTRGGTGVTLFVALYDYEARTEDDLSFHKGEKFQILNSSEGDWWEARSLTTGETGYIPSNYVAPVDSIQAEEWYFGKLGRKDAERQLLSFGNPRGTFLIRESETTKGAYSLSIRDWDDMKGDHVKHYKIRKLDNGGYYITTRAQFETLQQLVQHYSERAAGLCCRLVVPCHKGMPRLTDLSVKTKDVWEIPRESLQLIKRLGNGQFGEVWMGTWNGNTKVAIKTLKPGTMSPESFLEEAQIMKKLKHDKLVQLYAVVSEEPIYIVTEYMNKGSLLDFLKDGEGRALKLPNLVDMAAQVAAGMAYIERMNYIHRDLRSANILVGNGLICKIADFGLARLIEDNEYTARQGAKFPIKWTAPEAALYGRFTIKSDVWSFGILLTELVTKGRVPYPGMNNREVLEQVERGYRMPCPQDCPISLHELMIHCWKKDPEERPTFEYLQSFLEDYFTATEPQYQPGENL
- testSummary: phosphorylation enrichment, bacterial display (enrichment ratio); higher = better substrate or ligand; peptides without Tyr show the background
quantity: phosphorylation enrichment

[[record]]
monomersequence = "TFVKSYTIHFS [F5_Y2153_M2148T_YF]"
number = 0.468

[[record]]
monomersequence = "GGSTYYIDTNA [ACTL6A_Y69_P66S]"
number = 0.955

[[record]]
monomersequence = "TRGLEYIVPLM [CLCN4_Y548_G544R]"
number = 0.456

[[record]]
monomersequence = "GTVRDYPDFNP [ANXA3_Y15_S19N]"
number = 0.404

[[record]]
monomersequence = "DWWQEYVLNES [TGM1_Y267_R264W]"
number = 0.563

[[record]]
monomersequence = "HFMELYDLNRD [BBS2_Y648_R643H_YF]"
number = 1.38

[[record]]
monomersequence = "LAVVDYIRRQK [ATM_Y1915_M1916I]"
number = 0.649


These entries and their values trace back to the supplement of paper PMC10065799.
